Entry source: patent US9120756B2

- Assay Target: rat-species vanilloid receptor 1 (VR1/TRPV1) (Rattus norvegicus (Rat))
- Measurement Notes: FLIPR Ca2+ influx assay on rat dorsal root ganglia cells, capsaicin stimulus (method I)
- Format: cell-based
- Setup Conditions: capsaicin (Cap)
Recorded Metric: Ki (nM)

Completed entries (count: 2):
{"Compound": "C[C@H](C(=O)NCc1cc(C(F)(F)F)nn1-c1ccc(Cl)cc1)c1ccc(NS(C)(=O)=O)c(F)c1 [Example 23]", "Assay Target": "rat-species vanilloid receptor 1 (VR1/TRPV1) (Rattus norvegicus (Rat))", "Unit String": "nM", "Val": 0.4}
{"Compound": "CC(C(=O)NCc1cc(C(C)(C)C)nn1-c1ccc(Cl)cc1)c1ccc(NS(C)(=O)=O)c(F)c1 (stereo not shown) [Example 14]", "Assay Target": "rat-species vanilloid receptor 1 (VR1/TRPV1) (Rattus norvegicus (Rat))", "Unit String": "nM", "Val": 7.2}

[a] C[C@H](C(=O)NCc1cc(C(C)(C)C)nn1-c1ccc(Cl)cc1)c1ccc(NS(C)(=O)=O)c(F)c1 [Example 15]
[b] C[C@@H](C(=O)NCc1cc(C(F)(F)F)nn1-c1ccc(Cl)cc1)c1ccc(NS(C)(=O)=O)c(F)c1 [Example 22]
[c] COc1cc(C(C)C(=O)NCc2cc(C(C)(C)C)nn2-c2cccc(Cl)c2)ccc1NS(C)(=O)=O (stereo not shown) [Example 27]
[d] Cc1ccc(/C=C/n2nc(C(C)(C)C)cc2CNC(=O)C(C)c2ccc(NS(C)(=O)=O)c(F)c2)cc1 (stereo not shown) [Example 19]
Order these by Ki, descending, and give the full ranking. // ordering of labels required in reply d, b, a, c

* * *

- Assay Target: hVR1 (Homo sapiens (Human), UniProt Q8NER1)
- Sequence (Q8NER1 whole entry): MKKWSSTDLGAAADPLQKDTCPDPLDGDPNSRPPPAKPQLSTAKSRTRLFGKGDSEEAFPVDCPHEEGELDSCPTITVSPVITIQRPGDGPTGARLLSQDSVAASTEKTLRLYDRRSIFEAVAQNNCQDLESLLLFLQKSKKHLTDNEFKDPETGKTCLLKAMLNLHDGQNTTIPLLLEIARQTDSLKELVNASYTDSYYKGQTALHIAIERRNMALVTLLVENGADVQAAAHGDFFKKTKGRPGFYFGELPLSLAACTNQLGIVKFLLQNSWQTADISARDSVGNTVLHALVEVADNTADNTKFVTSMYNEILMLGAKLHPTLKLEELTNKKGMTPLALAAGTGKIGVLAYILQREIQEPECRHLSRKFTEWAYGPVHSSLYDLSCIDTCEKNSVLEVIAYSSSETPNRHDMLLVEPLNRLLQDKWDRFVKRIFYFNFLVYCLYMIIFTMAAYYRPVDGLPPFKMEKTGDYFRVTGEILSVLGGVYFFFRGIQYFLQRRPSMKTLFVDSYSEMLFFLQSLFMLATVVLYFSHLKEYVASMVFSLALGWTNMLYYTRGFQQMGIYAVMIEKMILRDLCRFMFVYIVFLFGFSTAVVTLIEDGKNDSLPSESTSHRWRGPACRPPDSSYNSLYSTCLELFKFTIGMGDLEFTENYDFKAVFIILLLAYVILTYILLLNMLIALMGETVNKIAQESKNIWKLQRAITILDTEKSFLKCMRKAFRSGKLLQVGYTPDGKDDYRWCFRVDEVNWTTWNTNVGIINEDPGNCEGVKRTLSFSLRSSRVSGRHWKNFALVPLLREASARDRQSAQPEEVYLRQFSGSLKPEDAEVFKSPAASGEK
- Measurement Notes: FLIPR Ca2+ influx assay on CHO K1 cells transfected with the VR1 gene, capsaicin stimulus (method II)
- Type: cell-based
- Setup Conditions: CHO-K1, read-out: Ki (human being) inhibition (as a percentage) @ 1 μM, capsaicin, inhibition determined at 1 μM
Recorded Metric: inhibition at 1 µM (%)

Completed entries (count: 2):
{"Molecule": "Cc1ccc(/C=C/n2nc(C(C)(C)C)cc2CNC(=O)C(C)c2ccc(NS(C)(=O)=O)c(F)c2)cc1 (stereo not shown) [Example 19]", "Val": 44}
{"Molecule": "CC(C(=O)NCc1cc(C(F)(F)F)nn1-c1cccc(Cl)c1)c1ccc(C(=O)Nc2ccccc2)cc1 (stereo not shown) [Example 143]", "Val": 56}

[A] COc1ccc(-n2nc(C(C)(C)C)cc2CNC(=O)C(C)c2ccc(NS(C)(=O)=O)c(F)c2)cc1 (stereo not shown) [Example 20]
[B] O=C(NCc1cc(C(F)(F)F)nn1-c1cccc(Cl)c1)C1(c2cccc(F)c2)CCCC1 [Example 120]
Field: lower inhibition at 1 µM | Options: A / B Field: selected label. Fill in the label of the entry you choose. B
(B: 6%, A: 55%)

* * *

- Assay Target: rat-species vanilloid receptor 1 (VR1/TRPV1) (Rattus norvegicus (Rat), UniProt O35433)
- Sequence (O35433 whole entry): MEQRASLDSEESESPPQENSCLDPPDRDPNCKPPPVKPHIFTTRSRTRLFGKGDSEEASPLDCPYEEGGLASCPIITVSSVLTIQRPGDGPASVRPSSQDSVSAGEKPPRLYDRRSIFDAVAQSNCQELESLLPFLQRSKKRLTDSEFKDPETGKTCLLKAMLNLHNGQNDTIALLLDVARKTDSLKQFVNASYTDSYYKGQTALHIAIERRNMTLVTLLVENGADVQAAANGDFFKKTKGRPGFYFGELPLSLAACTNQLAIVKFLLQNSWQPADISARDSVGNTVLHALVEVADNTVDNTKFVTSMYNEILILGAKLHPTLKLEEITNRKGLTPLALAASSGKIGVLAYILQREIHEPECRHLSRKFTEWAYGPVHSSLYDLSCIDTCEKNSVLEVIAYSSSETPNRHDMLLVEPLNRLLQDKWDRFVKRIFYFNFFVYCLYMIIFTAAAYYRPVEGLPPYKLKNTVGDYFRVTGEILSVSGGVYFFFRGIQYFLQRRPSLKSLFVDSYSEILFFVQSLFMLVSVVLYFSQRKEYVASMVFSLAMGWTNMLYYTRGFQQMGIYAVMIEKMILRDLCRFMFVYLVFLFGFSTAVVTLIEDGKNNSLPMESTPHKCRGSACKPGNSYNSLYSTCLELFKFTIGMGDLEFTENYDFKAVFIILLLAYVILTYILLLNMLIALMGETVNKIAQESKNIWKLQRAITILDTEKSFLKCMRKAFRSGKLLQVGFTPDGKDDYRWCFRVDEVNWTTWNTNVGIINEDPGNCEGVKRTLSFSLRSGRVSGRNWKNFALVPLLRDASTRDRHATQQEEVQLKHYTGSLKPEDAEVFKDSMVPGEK
- Measurement Notes: FLIPR Ca2+ influx assay on rat dorsal root ganglia cells, capsaicin stimulus (method I)
- Type: cell-based
- Setup Conditions: capsaicin (Cap)
Recorded Metric: Ki (nM)

Completed entries (count: 4):
{"Compound": "CCCCCCn1nc(C(C)(C)C)cc1CNC(=O)[C@@H](C)c1ccc(NS(C)(=O)=O)c(F)c1", "Ki [nM]": 14.5}
{"Compound": "CC(C(=O)NCc1cc(C(C)(C)C)nn1C1CCCCC1)c1ccc(NS(C)(=O)=O)c(F)c1 (stereo not drawn)", "Ki [nM]": 0.35}
{"Compound": "CC(C(=O)NCc1cc(C(F)(F)F)nn1-c1cccc(Cl)c1)c1ccc(C(F)(F)F)c(F)c1 (stereo not drawn)", "Ki [nM]": 25.5}
{"Compound": "COc1ccc(-n2nc(C(C)(C)C)cc2CNC(=O)C(C)c2ccc(NS(C)(=O)=O)c(F)c2)cc1 (stereo not drawn)", "Ki [nM]": 2830}

[I] CC(C(=O)NCc1cc(C(F)(F)F)nn1-c1ccc(Cl)cc1)c1ccc(NS(C)(=O)=O)c(F)c1 (stereo not drawn)
[II] O=C(Cc1cccc(F)c1)NCc1cc(C(F)(F)F)nn1-c1cccc(Cl)c1
Field: lower Ki | Options: I / II Field: selected label. Fill in the label of the entry you choose. I
